All figures here come from paper PMC9653733.

Test: Pharmacokinetics of topotecan in mice with or without Ac15(Az8)2
Assay type: in vivo
Details: female, Balb/c, mouse, plasma, ip; topotecan 2 mg/kg I.P., 45 mg/kg Ac15(Az8)2 I.P. one hour prior
MEASURED QUANTITY: Tmax (h)
Express it in h; write the number only.

Tmax lookup needed for CC[C@@]1(O)C(=O)OCc2c1cc1n(c2=O)Cc2cc3c(CN(C)C)c(O)ccc3nc2-1 [topotecan] , thanks. 1

###

Test: Pharmacokinetics of Ac15(Az8)2 in mice
Format: in vivo
Settings: female, Balb/c, mouse, ip, 45 mg/kg I.P., plasma, read-out: Half-life (E-phase) (converted)
MEASURED QUANTITY: half-life (h)
Express it in h; write the number only.

half-life lookup needed for COC(=O)c1cccc(COc2c(-c3ccc(OCCOCCn4cc(CN(Cc5ccccc5)Cc5cn(CCOCCOc6ccc(-c7oc8ccccc8c(=O)c7OCc7cccc(C(=O)OC)c7)cc6)nn5)nn4)cc3)oc3ccccc3c2=O)c1 [Ac15(Az8)2] , thanks. 10.6

###

Test: Pharmacokinetics of topotecan in mice with or without Ac15(Az8)2
Type: in vivo
Conditions: female, Balb/c, mouse, plasma, ip, 2 mg/kg, topotecan 2 mg/kg I.P., Ac15(Az8)2 0 mg/kg (solvent)
MEASURED QUANTITY: AUC(0-inf) (ng·h/mL)
Express it in ng·h/mL; write the number only.

AUC(0-inf) lookup needed for CC[C@@]1(O)C(=O)OCc2c1cc1n(c2=O)Cc2cc3c(CN(C)C)c(O)ccc3nc2-1 [topotecan] , thanks. 4400

###

Experiment: Pharmacokinetics of Ac15(Az8)2 in mice
Type: in vivo
Details: female, Balb/c, mouse, ip, 45 mg/kg I.P., plasma
MEASURED QUANTITY: Tmax (h)
Express it in h; write the number only.

Tmax lookup needed for COC(=O)c1cccc(COc2c(-c3ccc(OCCOCCn4cc(CN(Cc5ccccc5)Cc5cn(CCOCCOc6ccc(-c7oc8ccccc8c(=O)c7OCc7cccc(C(=O)OC)c7)cc6)nn5)nn4)cc3)oc3ccccc3c2=O)c1 , thanks. 3

###

Test: Pharmacokinetics of Ac15(Az8)2 in mice
Format: in vivo
Settings: female, Balb/c, mouse, ip, 45 mg/kg I.P., plasma
MEASURED QUANTITY: AUC(0-inf) (ng·h/mL)
Express it in ng·h/mL; write the number only.

AUC(0-inf) lookup needed for COC(=O)c1cccc(COc2c(-c3ccc(OCCOCCn4cc(CN(Cc5ccccc5)Cc5cn(CCOCCOc6ccc(-c7oc8ccccc8c(=O)c7OCc7cccc(C(=O)OC)c7)cc6)nn5)nn4)cc3)oc3ccccc3c2=O)c1 , thanks. 83500

###

Test: Pharmacokinetics of topotecan in mice with or without Ac15(Az8)2
Assay type: in vivo
Details: female, Balb/c, mouse, plasma, ip, 2 mg/kg, topotecan 2 mg/kg I.P., 45 mg/kg Ac15(Az8)2 I.P. one hour prior
MEASURED QUANTITY: Cmax

Cmax lookup needed for CC[C@@]1(O)C(=O)OCc2c1cc1n(c2=O)Cc2cc3c(CN(C)C)c(O)ccc3nc2-1 , thanks. 4400 ng/mL

###

Test: Pharmacokinetics of topotecan in mice with or without Ac15(Az8)2
Assay type: in vivo
Details: female, Balb/c, mouse, plasma, ip, 2 mg/kg, topotecan 2 mg/kg I.P., 45 mg/kg Ac15(Az8)2 I.P. one hour prior; read-out: Half-life (E-phase) of topotecan (converted)
Procedure: Ac15(Az8)2 and topotecan in plasma were analyzed by UPLC–MS/MS. UPLC (Acquity Waters) and triple quadrupole mass analyzer (Quattro Ultima) with an electrospray ionization source in the positive mode were used to quantify Ac15(Az8)2 and topotecan. […] Ac15(Az8)2 and its internal standard Ac15(Az5)2 (Figure S2) were monitored at m/z 608 → m/z 149 and m/z 594 → m/z 1097, respectively. […] Topotecan and its internal standard tetracycline were monitored at m/z 422 → m/z 377 and m/z 445 → m/z 410, respectively. […]
MEASURED QUANTITY: half-life (h)
Express it in h; write the number only.

half-life lookup needed for CC[C@@]1(O)C(=O)OCc2c1cc1n(c2=O)Cc2cc3c(CN(C)C)c(O)ccc3nc2-1 , thanks. 1.6
